All values here come from patent US12486253B2.

molecular target: BRAF V600E (Homo sapiens, UniProt P15056, V600E); test: HiBiT cellular BRAF^V600E degradation assay; format: cell-based; details: A375.10 cells, 24 h; residual protein remaining in the cell; read-out: HiBit 24 h Emax
Sequence (P15056 whole entry V600E): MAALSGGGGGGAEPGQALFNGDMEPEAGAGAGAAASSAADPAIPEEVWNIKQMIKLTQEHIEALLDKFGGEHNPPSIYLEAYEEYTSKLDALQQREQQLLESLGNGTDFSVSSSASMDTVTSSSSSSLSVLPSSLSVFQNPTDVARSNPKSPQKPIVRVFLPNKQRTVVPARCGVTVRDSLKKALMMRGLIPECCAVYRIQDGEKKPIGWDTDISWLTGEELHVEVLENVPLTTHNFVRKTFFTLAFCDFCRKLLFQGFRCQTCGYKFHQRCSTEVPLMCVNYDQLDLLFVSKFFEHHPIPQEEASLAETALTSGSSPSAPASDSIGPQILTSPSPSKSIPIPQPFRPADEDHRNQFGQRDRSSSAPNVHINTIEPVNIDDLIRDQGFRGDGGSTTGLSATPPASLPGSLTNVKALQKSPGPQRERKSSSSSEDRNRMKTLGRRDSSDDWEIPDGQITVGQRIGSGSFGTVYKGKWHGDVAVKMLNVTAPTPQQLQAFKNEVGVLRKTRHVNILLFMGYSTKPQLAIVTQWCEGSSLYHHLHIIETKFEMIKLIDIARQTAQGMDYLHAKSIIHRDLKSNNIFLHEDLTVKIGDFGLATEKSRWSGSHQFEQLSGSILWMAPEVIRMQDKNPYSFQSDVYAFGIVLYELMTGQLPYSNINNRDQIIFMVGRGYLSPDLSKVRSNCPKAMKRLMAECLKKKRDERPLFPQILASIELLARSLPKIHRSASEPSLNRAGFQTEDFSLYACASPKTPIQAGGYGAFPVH
experimentalEndpoint: Emax (%)

// worked examples, Emax included
[ask] # lookup: Emax of N#Cc1c(NS(=O)(=O)C2CC2)ccc(F)c1Oc1ccc2ncn(-c3cnc(N4CCN(C(=O)CN5CCC(c6ccc(N[C@@H]7CCC(=O)NC7=O)cc6F)CC5)CC4)nc3)c(=O)c2c1
[reply] 12.8

[ask] # lookup: Emax of CCN(C)S(=O)(=O)Nc1ccc(F)c(Oc2ccc3ncn([C@@H]4CCC5(CCN(C(=O)CN6CCC(c7ccc(NC8CCC(=O)NC8=O)cc7F)CC6)CC5)C4)c(=O)c3c2Cl)c1C#N (single isomer, unassigned)
[reply] 13.8

[ask] # lookup: Emax of CCN(C)S(=O)(=O)Nc1ccc(F)c(Oc2ccc3ncn([C@H]4COC5(CCN(C(=O)CN6CCC(c7ccc(NC8CCC(=O)NC8=O)cc7F)CC6)CC5)C4)c(=O)c3c2Cl)c1C#N (single isomer, unassigned)
[reply] 9.51

[ask] # lookup: Emax of COC1CN(S(=O)(=O)Nc2ccc(F)c(Oc3ccc4ncn(-c5cnc(N6CCN(C(=O)CN7CCC(c8ccc(N[C@H]9CCC(=O)NC9=O)cc8F)CC7)CC6)nc5)c(=O)c4c3)c2C#N)C1
[reply] 9.02

[1] CCN(C)S(=O)(=O)Nc1ccc(F)c(Oc2ccc3ncn(C4CCC5(CC4)CCN(C(=O)CC4(O)CCN(c6cc7c(cc6F)c(N6CCC(=O)NC6=O)nn7C)CC4)CC5)c(=O)c3c2)c1C#N
[2] CCN(C)S(=O)(=O)Nc1ccc(F)c(Oc2ccc3ncn([C@H]4COC5(CCN(C(=O)CN6CCC(c7ccc(NC8CCC(=O)NC8=O)cc7F)CC6)CC5)C4)c(=O)c3c2Br)c1C#N (single isomer, unassigned)
[3] CCN(C)S(=O)(=O)Nc1ccc(F)c(Oc2ccc3ncn([C@H]4COC5(CCN(C(=O)CC6CCN(c7ccc(NC8CCC(=O)NC8=O)cc7F)CC6)CC5)C4)c(=O)c3c2)c1C#N (stereo partly drawn)
[4] CCN(C)S(=O)(=O)Nc1ccc(F)c(Oc2ccc3ncn(C4COC5(CCN(C(=O)CN6CCC(c7ccc(NC8CCC(=O)NC8=O)cc7F)CC6)CC5)C4)c(=O)c3c2Br)c1C#N (stereo not drawn)
[ask] // ascending sort on recorded Emax # output: labels, in the requested order
[reply] 4, 2, 3, 1
